# PROTOCOL_NOTES: qHTS for Inhibitors of human tyrosyl-DNA phosphodiesterase 1 (TDP1): qHTS in cells in absence of CPT; note: nearly all actives have a fitted effect of over 55% in size
# RUN_CONDITIONS: DT40 Tdp1-/- hTDP1 cells, no CPT, ATP luminescence, 48 h
The whole screen tested about 420,000 compounds, of which about 64,000 (15%) were called active. Inconclusive results (about 27%) are left out. Calls come from the whole dose curve; as a rule, active = well fitted inhibition curve with a large enough effect; inconclusive = small, poorly fitted or top-dose-only effect; inactive = flat fitted curve, though single readings scatter. Only a sample is shown.
Outcome codes: active, inactive

- COMPOUND: "CCc1noc(C)c1C(=O)OCC(=O)c1ccc(NC(=O)CC(C)C)cc1"
  CATEGORY: "active"
- COMPOUND: "CCN(Cc1ccccc1)Cc1c(O)ccc2c(=O)c(-c3ccc(Cl)cc3Cl)coc12"
  CATEGORY: "inactive"
- COMPOUND: "CS(=O)(=O)N(C(=O)NC(=O)NC1CCS(=O)(=O)C1)C1CCCCC1 (stereo not given)"
  CATEGORY: "inactive"
- COMPOUND: "CC(=O)Nc1nc2c(s1)C(=O)NCC(C)(C)C2"
  CATEGORY: "inactive"
- COMPOUND: "CN1C(=O)c2ccccc2C(C(=O)NCCCN2CCCC2)C1c1c[nH]c2ccccc12 (stereo not given)"
  CATEGORY: "inactive"
- COMPOUND: "O=S(=O)(c1cccs1)N1CCN(Cc2ccccc2)CC1"
  CATEGORY: "inactive"
- COMPOUND: "O=C(CCN1C(=O)c2ccccc2C1=O)NCCN1CCOCC1"
  CATEGORY: "inactive"
- COMPOUND: "COC(=O)c1sc(N)c(C(=O)OC)c1COC(=O)CNS(=O)(=O)c1ccc(C)cc1"
  CATEGORY: "inactive"
- COMPOUND: "CCCNC(=O)C(CC)n1nc(CC)n2c(cc3oc(C)cc32)c1=O (stereo not given)"
  CATEGORY: "active"
- COMPOUND: "Cc1ccc(O/C=C2\\OC(=O)c3ccccc32)cc1"
  CATEGORY: "inactive"
- COMPOUND: "COc1ccc(CNC(=O)C2=Cc3cccc(OC)c3OC2)cc1OC"
  CATEGORY: "inactive"
- COMPOUND: "CCN(CC(=O)NC1CCS(=O)(=O)C1)S(=O)(=O)c1ccccc1 (stereo not given)"
  CATEGORY: "inactive"
- COMPOUND: "CCN(CC)C(=O)[C@H]1CC(CC(=O)NCc2ccco2)C(=O)N2CCc3c([nH]c4ccccc34)[C@]12C (stereo not given in full)"
  CATEGORY: "inactive"
- COMPOUND: "CC(C)c1nnc(NC(=O)CCC(=O)N2CCN(c3cccc(Cl)c3)CC2)s1"
  CATEGORY: "inactive"
- COMPOUND: "CC[C@]12c3[nH]c4cc(CCC(=O)N(C)C)ccc4c3CCN1C(=O)[C@@H](CC(=O)NCCCN(C)C)C[C@@H]2C(=O)N1CCN(C(=O)c2ccco2)CC1"
  CATEGORY: "inactive"
- COMPOUND: "C=CCn1cc(Cl)cc(C(=O)Nc2ccccc2)c1=O"
  CATEGORY: "inactive"
- COMPOUND: "NC1=NN(c2cccc(C(=O)O)c2)C(=O)C1"
  CATEGORY: "inactive"
- COMPOUND: "Cc1cc2oc(=O)cc(CN3CCN(S(=O)(=O)c4cccs4)CC3)c2cc1C(C)C"
  CATEGORY: "active"
- COMPOUND: "CC[C@]12c3[nH]c4cc(CCC(=O)N(C)C)ccc4c3CCN1C(=O)[C@@H](CC(=O)NCCCn1ccnc1)C[C@@H]2C(=O)N1CCN(C(=O)C2CC2)CC1"
  CATEGORY: "inactive"
- COMPOUND: "COC(=O)c1sccc1N/N=C(\\C)c1ccc(F)c(Cl)c1"
  CATEGORY: "inactive"
- COMPOUND: "Cc1cccc(/C(N)=N/OC(=O)c2ccccc2Cl)c1"
  CATEGORY: "inactive"
- COMPOUND: "N#Cc1ccc(-c2ccc(F)cc2)nc1Sc1ccccc1"
  CATEGORY: "inactive"
- COMPOUND: "CC(C)N(C(=O)[C@H]1C[C@H](CC(=O)NC(C)(C)C)C(=O)N2CCc3c([nH]c4ccc(Cl)cc34)[C@]12C)C(C)C"
  CATEGORY: "active"
- COMPOUND: "COc1ccc2oc(=O)cc(CN3CCOCC3)c2c1"
  CATEGORY: "inactive"
- COMPOUND: "O=C(COc1ccccc1)OCc1cc(=O)n2nc(-c3cccs3)sc2n1"
  CATEGORY: "inactive"
- COMPOUND: "O=S1(=O)CCC(NC(=S)SCc2ccccc2Br)C1 (stereo not given)"
  CATEGORY: "active"
- COMPOUND: "CCc1ccccc1NC(=O)c1ccc2c(c1)CCN2S(C)(=O)=O"
  CATEGORY: "inactive"
- COMPOUND: "CC[C@]12c3[nH]c4cc(CCC(=O)N(C)C)ccc4c3CCN1C(=O)[C@@H](CC(=O)NCc1ccco1)C[C@@H]2C(=O)N1CCN(C(=O)c2ccco2)CC1"
  CATEGORY: "inactive"
- COMPOUND: "COc1ccc(-n2nc3c(c2NC(=O)c2ccc(N4C(=O)CCC4=O)cc2)CSC3)cc1"
  CATEGORY: "inactive"
- COMPOUND: "Cc1nc2cnc(N3CCN(C)CC3)nc2n(CCC#N)c1=O"
  CATEGORY: "inactive"
- COMPOUND: "CCc1nn(CC(=O)NCC(C)c2ccccc2)c(=O)c2cc3occc3n12 (stereo not given)"
  CATEGORY: "inactive"
- COMPOUND: "CCc1ccccc1NC(=O)NCCN1CCCCC1"
  CATEGORY: "inactive"
- COMPOUND: "Cc1csc(NC(=O)CSc2nc(=O)n(CCCN(C)C)c3c2CCC3)n1"
  CATEGORY: "inactive"
- COMPOUND: "CN(C)C(=O)CCc1ccc2c3c([nH]c2c1)[C@]1(CCc2ccccc2)[C@@H](C(=O)N2CCCCC2)C[C@H](CC(=O)NCCC2=CCCCC2)C(=O)N1CC3"
  CATEGORY: "active"
- COMPOUND: "N#CC(Cc1cc2ccccc2n1S(=O)(=O)c1ccccc1)OCc1ccccc1 (stereo not given)"
  CATEGORY: "inactive"
- COMPOUND: "CN(C)N=Nc1ccc2nc[nH]c2c1"
  CATEGORY: "inactive"
- COMPOUND: "CN(C)C(=O)CCc1ccc2c3c([nH]c2c1)[C@]1(C)[C@@H](C(=O)N2CCCCC2)C[C@H](CC(=O)NCCC2=CCCCC2)C(=O)N1CC3"
  CATEGORY: "active"
- COMPOUND: "C[C@]12c3[nH]c4ccc(Cl)cc4c3CCN1C(=O)[C@@H](CC(=O)NCCCn1ccnc1)C[C@@H]2C(=O)N1CCOCC1"
  CATEGORY: "inactive"
- COMPOUND: "O=C(CCCC(=O)N1CCN(c2cccc(Cl)c2)CC1)c1ccccc1"
  CATEGORY: "active"
- COMPOUND: "O=C(O)c1ccccc1C(=O)Nc1ccccc1[N+](=O)[O-]"
  CATEGORY: "inactive"
